FYI, the data here is from patent US6613718B2.

# Tested on: field corn (Zea mays L., var. Dekalb 535, CORN)
# ASSAY PROCEDURE: Post-emerge greenhouse screening, crop safety / corn selectivity (phytotoxicity rating)
# Type: in vivo
# CONDITION DESCRIPTION: 250 g ai/ha, 14 days after application
Assignment: determine reported CORN crop damage, phytotoxicity rating (0-100 scale) for the given molecules.
One number for each entry.

Observe how each entry below is paired with its result.
• Cn1c(C(F)(F)F)cc(=O)n(-c2cc(Oc3ncccn3)c(Cl)cc2F)c1=S = 15
• O=[N+]([O-])c1ccccc1Oc1cc(-c2nn3c(c2Cl)CCCC3)c(F)cc1Cl = 3
• COc1ccccc1Oc1cc(-n2c(=O)cc(C(F)(F)F)n(C)c2=S)c(F)cc1C#N = 0
• Cn1c(C(F)(F)F)cc(=O)n(-c2cc(Oc3ccccc3[N+](=O)[O-])c(Cl)cc2F)c1=S = 0
• N#Cc1c(-c2cc(Oc3ncccn3)c(Cl)cc2F)nn2c1CCCC2 = 5

Give CORN crop damage, phytotoxicity rating (0-100 scale) for each of the items listed below.
1. COc1ccc(Oc2cc(-n3c(=O)cc(C(F)(F)F)n(C)c3=S)c(F)cc2C#N)cc1
2. Cn1c(=S)n(C)c(=O)n(-c2cc(Oc3ncccn3)c(Cl)cc2F)c1=O
3. Cn1c(C(F)(F)F)cc(=O)n(-c2cc(Oc3ccccc3O)c(C#N)cc2F)c1=S

Result ::
1. 0
2. 5
3. 0

----------
# System: redroot pigweed (Amaranthus retroflexus, AMARE)
# ASSAY PROCEDURE: Post-emerge greenhouse herbicide activity screening, phytotoxicity rating
# Format: in vivo
# CONDITION DESCRIPTION: 125 g ai/ha, 14 days after application
Assignment: determine reported AMARE phytotoxicity rating (0-100 scale) for the given compounds.

• Cn1c(C(F)(F)F)cc(=O)n(-c2cc(Oc3ccccc3)c(Cl)cc2F)c1=S [Compound 1-47] = 100
• Cn1c(C(F)(F)F)cc(=O)n(-c2cc(Oc3ncccn3)c(Cl)cc2F)c1=S [Compound 1-1] = 100
• Cn1c(C(F)(F)F)cc(=O)n(-c2cc(Oc3ccccc3C#N)c(Cl)cc2F)c1=S [Compound 1-66] = 70
• Cn1c(C(F)(F)F)cc(=O)n(-c2cc(Oc3ccccc3N)c(Cl)cc2F)c1=S [Compound 1-48] = 100
• Cn1nc(-c2cc(Oc3ncccn3)c(Cl)cc2F)c(Cl)c1[S+]([O-])C(F)F (stereo not drawn) [Compound 5-1] = 100

Give AMARE phytotoxicity rating (0-100 scale) for each of the items listed below.
1. Cn1c(C(F)(F)F)cc(=O)n(-c2cc(Oc3ncccc3[N+](=O)[O-])c(Cl)cc2F)c1=S [Compound 1-9]
2. COc1ccc(Oc2cc(-n3c(=O)cc(C(F)(F)F)n(C)c3=S)c(F)cc2C#N)cc1 [Compound 1-72]
3. Cn1c(C(F)(F)F)cc(=O)n(-c2cc(Oc3ncccc3C(F)(F)F)c(Cl)cc2F)c1=S [Compound 1-15]
4. Cn1c(=S)n(C)c(=O)n(-c2cc(Oc3ccccc3[N+](=O)[O-])c(Cl)cc2F)c1=O [Compound 2-17]
5. Fc1cc(Cl)c(Oc2ncccn2)cc1-c1nn2c(c1Br)CCCC2 [Compound 6-2]
6. Cn1c(=S)n(C)c(=O)n(-c2cc(Oc3ccccc3)c(Cl)cc2F)c1=O [Compound 2-16]

Result ::
[100, 80, 90, 80, 100, 80]

# compound Cn1c(C(F)(F)F)cc(=O)n(-c2cc(Oc3ccccc3[N+](=O)[O-])c(Cl)cc2F)c1=S [Compound 1-49] ; its AMARE phytotoxicity rating (0-100 scale) = 99
